Test system: SK-OV-3 ovarian
assay.remarks: NCI tumour cell line growth inhibition, 48 h
readout: TGI

Examples with their reported TGI follow.
- Cc1ccc(CS/C(=C\c2ccc([N+](=O)[O-])cc2)C(=O)c2ccc(F)cc2)cc1: > 100 µM
- CCCCN1C(=O)CC2[C@@H]3CCc4cc(OC(C)=O)ccc4C3CC[C@]2(C)C1=O (stereo not given in full): > 10 µM
- COc1ccc(C2CC(c3c(O)ccc4ccccc34)=NN2c2ccc([N+](=O)[O-])cc2[N+](=O)[O-])cc1OC (stereo not given): > 88 µM
- O=C1NNC=Nc2ccc(cc2)S(=O)(=O)c2ccc(cc2)N=CNNC1=O: > 100 µM
- CCOC(=O)c1csc(NC(=O)CCN(CC)CC)n1: > 100 µM
- Cc1ccc(C(=O)Nc2ccc(CP(=O)(O)O)cc2CP(=O)(O)O)cc1NC(=O)c1cccc(N)c1: > 100 µM

# batch size: 4; output TGI per entry
1. Cc1ccc(-c2c(C#N)c(-c3ccccc3)n(NS(=O)(=O)c3ccccc3)c(=O)c2C#N)cc1
2. OCC1CCCCCCCCCCC12SCCCS2 (stereo not given)
3. COC(=O)c1cc2c3ccccc3[nH]c2c2ncccc12
4. Cc1nc2c(nc1Cl)nc(Oc1ccc(Cl)cc1)c1ccccc12

1: > 100 µM; 2: > 100 µM; 3: > 100 µM; 4: > 100 µM

* * *

Test system: SF-268 CNS
assay.remarks: NCI tumour cell line growth inhibition, 48 h
readout: TGI

Examples with their reported TGI follow.
* COc1cc(C2c3cc4c(cc3C(NCC(O)CO)C3COC(=O)[C@H]23)OCO4)cc(OC)c1OC (stereo not given in full) | > 100 µM
* CC(C)(C)C1=C(Br)C(Br)(C(C)(C)C)OP1(=O)c1ccccc1 (stereo not given) | > 100 µM
* OCCC1(O)CCC(O)CC1 (stereo not given) | > 100 µM
* CCN1c2ccccc2-n2c(C)nnc2-c2c1n[nH]c2-c1ccccc1 | > 100 µM
* CSc1nc(Cl)c2c(n1)Sc1nc3cc4c(cc3n1C2O)OCCO4 (stereo not given) | 80.3 µM

# batch size: 5; output TGI per entry
1. C=C(C(=O)C(=O)Oc1ccc(Cl)cc1)C(=O)c1ccc(C)cc1
2. COc1ccc2[nH]c(O)c(/C=c3/cc4c(c(-c5cc(OC)c(OC)c(OC)c5)n3)=Nc3ccccc3-4)c2c1
3. COC1C(CN[N+](=O)CC2OC3OC(C)(C)OC3C2OC)OC2OC(C)(C)OC21 (stereo not given)
4. CCCCN1C(=O)CC2[C@@H]3CCc4cc(OC(C)=O)ccc4C3CC[C@]2(C)C1=O (stereo not given in full)
5. Cc1nn(CN2CCN(C)CC2)c(=S)n1/N=C/c1cccc2ccccc12

> 100 µM
> 100 µM
> 100 µM
> 10 µM
68.2 µM

* * *

System: A498 renal
assay.remarks: NCI tumour cell line growth inhibition, 48 h
Exercise: state measured TGI for each of the molecules provided.

• Cc1ccc(-c2c(C#N)c(-c3ccccc3)n(NS(=O)(=O)c3ccccc3)c(=O)c2C#N)cc1 = > 100 µM
• COC(=O)C(=O)C(C(=O)C=C(C)C)C(=O)C(=O)Nc1cc(C(F)(F)F)ccc1Cl (stereo unspecified) = > 100 µM

# batch size: 8; output TGI per entry
1. O=C(CI)NC1Oc2ccccc2-c2oc(=O)c(-c3ccccc3)cc21 (stereo unspecified)
2. Brc1ccc(CCNCCN2CCCCC2)cc1
3. OC1C2[C@@H](O)CCCN2C[C@@H](O)[C@H]1O (stereo partly specified)
4. NCC1CCN(c2nc3ccccc3c3c2CCCC3)CC1
5. Nc1ccc2nc(-c3ccccn3)c(-c3ccccn3)nc2c1
6. CCN(CC)c1c(C(=O)/C=C/c2ccccc2)c(-c2ccccc2)nn(C)c1=O
7. COCOC1/C=C/CCCC#C[C@H](C)C(=O)CC1 (stereo partly specified)
8. O=c1[nH]n2c(=O)cc[nH]c2c1-c1nnns1

["3.62 µM", "32 µM", "> 100 µM", "25.7 µM", "> 100 µM", "> 100 µM", "25.4 µM", "> 100 µM"]

# batch size: 4; output TGI per entry
1. NCC(=O)NS(=O)(=O)OC[C@H]1O[C@@H](n2cnc3c(N)ncnc32)[C@H](O)[C@@H]1O
2. CC1(O)CC(C(F)(F)F)(C(F)(F)F)OC1=O (stereo unspecified)
3. CCCCCCCCCC[C@@H](O)[C@@H]1CC[C@H]([C@H]2CC[C@@H]([C@@H](O)CCCCCCCCCC[C@H]3CC(CC(C)=O)C(=O)O3)O2)O1 (stereo partly specified)
4. CCNCCNc1cc(-c2ccc(C(=O)OC)cc2)c(C#N)c2nc3ccccc3n12

1: 3.21 µM; 2: > 10 µM; 3: 71.9 µM; 4: 5.13 µM

# batch size: 2; output TGI per entry
1. CC1OC(O[C@H]2C[C@@H](O)[C@]3(CO)[C@H]4[C@H](O)C[C@]5(C)[C@@H](C6=CC(=O)OC6)CC[C@]5(O)[C@@H]4CC[C@]3(O)C2)C(O)C(O)C1O (stereo partly specified)
2. CCCCCCCCCCCCCCCCCCNc1ccn(C2OC(COP(=O)(O)OCC3OC(n4ccc(NC(=O)CCCCCCCCCCCCCCCCC)nc4=O)C(OC(C)=O)C3OC(C)=O)C(OC(C)=O)C2OC(C)=O)c(=O)n1 (stereo unspecified)

1: 39 µM; 2: > 100 µM
